Tested on: HL-60
Measurement Protocol: NCI tumour cell line growth inhibition, 48 h
Calls of active or inactive are those of the source. Rule as the data show it: active = GI50 up to about 1.1 µM and inactive = higher.
Classes to choose from: active, inactive

State the result this test recorded for Cn1c2ccccc2c(=O)c2c(O)cc3c(c21)C1OCC(C)(O)C1O3 (stereo unspecified) .
inactive

State the result this test recorded for `O=C(COc1ccc(OCC(=O)N2C(=O)CN(c3ccccc3)C2=S)cc1)N1C(=O)CN(c2ccccc2)C1=S` .
inactive

State the result this test recorded for `CN(C)CCC(CCN(C)C)=NO` .
inactive

State the result this test recorded for `N#Cc1ccc(Sc2ccccc2)cc1C#N` .
inactive

State the result this test recorded for `CCOC(=O)c1c(SCCCN2CCCCC2)n(-c2ccccc2)c(=S)n(-c2ccccc2)c1=O` .
inactive

State the result this test recorded for `COc1cc2c3c([nH]c2c(OC)c1OC)CCN(Cc1ccccc1)C3` .
inactive

State the result this test recorded for `Cc1cc2ccccc2c[n+]1CC(=O)CC([O-])(C(F)(F)F)C(F)(F)F` .
inactive

State the result this test recorded for `O=C1OI(C#Cc2ccccc2)c2ccccc21` .
active

State the result this test recorded for `COc1ccc(/C(Cl)=C(/c2ccc(O)cc2)c2ccc(OCCN(C)C)cc2)cc1` .
inactive

State the result this test recorded for `NNC(=O)c1ccccc1NC(=O)/C(=C/c1ccccc1)NC(=O)c1ccccc1` .
inactive

State the result this test recorded for N#CC(C(=O)CCC(=O)Nc1ccc(Cl)c(Cl)c1)c1ccccc1 (stereo unspecified) .
inactive
